The reported measurements were obtained from patent US20200071327A1.

Target: full-length human S1P1 (Homo sapiens, UniProt P21453)
Construct: CHO-K1 Gαqi5 cells expression full-length human S1P1
Sequence (P21453 whole entry): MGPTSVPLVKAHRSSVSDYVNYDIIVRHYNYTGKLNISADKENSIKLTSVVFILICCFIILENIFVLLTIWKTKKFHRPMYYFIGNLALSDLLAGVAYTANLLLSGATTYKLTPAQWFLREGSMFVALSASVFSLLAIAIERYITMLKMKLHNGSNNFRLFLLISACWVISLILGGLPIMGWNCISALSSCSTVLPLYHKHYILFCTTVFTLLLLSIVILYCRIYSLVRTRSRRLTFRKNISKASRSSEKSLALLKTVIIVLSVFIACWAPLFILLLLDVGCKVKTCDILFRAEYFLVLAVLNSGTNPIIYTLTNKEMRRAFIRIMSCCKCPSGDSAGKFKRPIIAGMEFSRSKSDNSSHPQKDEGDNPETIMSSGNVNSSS
Experiment: GTPγS binding assay (scintillation proximity assay) on S1P1 membranes
Conditions: membranes from CHO-K1 Gαqi5 cells expressing full-length human S1P1; GTPγ35S; 60 minutes incubation
pEC50: −log10 of the molar value.
Quantity: pEC50

For `O=C1CC[C@@H](Oc2cc(Cl)c(-c3noc(-c4cn5cc(C(F)(F)F)cc(Cl)c5n4)n3)cc2Cl)CN1` on full-length human S1P1 (Homo sapiens, UniProt P21453), measured pEC50 was > 6.00
